Measured values drawn from paper PMC10232832 for this set.

# targetUnderTest: Anoctamin 1 (ANO1) (Homo sapiens, UniProt Q5XXA6)
# Construct: ANO1 stably expressed in FRT cells
# Sequence (Q5XXA6 1-986): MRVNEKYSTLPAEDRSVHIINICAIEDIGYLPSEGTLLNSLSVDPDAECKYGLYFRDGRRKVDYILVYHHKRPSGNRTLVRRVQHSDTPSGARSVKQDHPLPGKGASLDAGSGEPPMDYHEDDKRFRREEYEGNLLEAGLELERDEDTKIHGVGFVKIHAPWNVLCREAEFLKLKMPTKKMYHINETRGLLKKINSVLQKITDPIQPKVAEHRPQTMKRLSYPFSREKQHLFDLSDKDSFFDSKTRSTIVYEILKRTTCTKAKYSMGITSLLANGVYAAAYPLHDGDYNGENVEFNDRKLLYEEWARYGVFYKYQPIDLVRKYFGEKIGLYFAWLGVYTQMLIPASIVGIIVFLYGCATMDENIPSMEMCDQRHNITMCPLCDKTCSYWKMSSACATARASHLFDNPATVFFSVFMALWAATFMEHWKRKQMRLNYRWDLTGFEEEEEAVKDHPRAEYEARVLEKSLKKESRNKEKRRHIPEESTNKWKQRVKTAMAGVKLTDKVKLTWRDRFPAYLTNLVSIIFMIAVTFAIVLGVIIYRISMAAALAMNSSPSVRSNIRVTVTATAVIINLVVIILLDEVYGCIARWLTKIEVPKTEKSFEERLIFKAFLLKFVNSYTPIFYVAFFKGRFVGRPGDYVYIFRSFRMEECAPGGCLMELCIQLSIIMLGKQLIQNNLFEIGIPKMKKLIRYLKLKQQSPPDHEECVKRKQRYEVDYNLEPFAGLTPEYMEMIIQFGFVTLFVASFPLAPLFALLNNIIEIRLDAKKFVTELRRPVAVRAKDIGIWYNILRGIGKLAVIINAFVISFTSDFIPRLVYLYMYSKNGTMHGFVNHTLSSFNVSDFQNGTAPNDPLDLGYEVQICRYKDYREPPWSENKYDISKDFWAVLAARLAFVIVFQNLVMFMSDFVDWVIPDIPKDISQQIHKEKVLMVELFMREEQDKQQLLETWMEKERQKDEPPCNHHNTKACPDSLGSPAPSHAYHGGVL
# methodNotes: YFP fluorescence quenching (iodide influx) assay in FRT cells expressing ANO1 and YFP
pIC50: −log10 of the molar value.

{"sampleSmiles": "COc1cc(C[C@@H](C)[C@@H](C)Cc2cc(O)c(OC)c(OC)c2)cc(O)c1OC", "pIC50": 5.28}
